Hi there, I'd appreciate the recorded TGI for every entry that follows.
System: NCI-H522 lung
assayOverview: NCI tumour cell line growth inhibition, 48 h

Answered examples (4):
# molecule, assayedSystem, TGI
measured = [
    ("Nc1ncnc2nn(C3OC(CO)C(O)C3O)nc12 (stereo unspecified)", "NCI-H522 lung", "> 100 µM"),
    ("NC(=S)N/N=C1\\CCCCC1C(O)(C(F)(F)Cl)C(F)(F)Cl (stereo unspecified)", "NCI-H522 lung", "> 10 µM"),
    ("O=C(CCc1ccc(O)cc1)NCCCNC(=O)CCc1ccc(O)cc1", "NCI-H522 lung", "> 100 µM"),
    ("COc1ccc(-c2nnc(Nc3nc(O)c(C4=c5cc(F)ccc5=NC4=O)s3)o2)cc1", "NCI-H522 lung", "> 100 µM"),
]

Look up TGI for the entries below, preserving their order.
1. CCOC(=O)c1nc2cc(C(F)(F)F)ccc2[n+]([O-])c1C
2. Cc1cn2c(/C=N/N=C(N)N)c(-c3ccsc3)nc2s1

["> 100 µM", "> 100 µM"]

* * *

Exercise: state measured TGI for each of the compounds provided.
Tested on: SR leukemia
assayOverview: NCI tumour cell line growth inhibition, 48 h
Numbers only, in µM.

Some solved cases for reference:
# compound, unitsSymbol, TGI
records = [
    ("O=C(COc1ccc(-c2nc3cc(Cl)c(Cl)cc3[nH]2)cc1)N=Nc1c(O)[nH]c2ccccc12", "µM", 31.7),
    ("CC(C)(C)N=CN(C=C(c1ccccc1)c1ccccc1)C1CCCCC1", "µM", 51),
    ("COc1ccc(C(=O)OC2C(OC3C(O)COC(O[C@H]4C[C@H]5[C@@H]6CC=C7C[C@@H](O)CC[C@]7(C)[C@H]6CC[C@]5(C)[C@H]4[C@H](C)C(=O)CCC(C)C)C3OC(C)=O)OCC(O)C2O)cc1 (stereo partly drawn)", "µM", 0.682),
    ("CC[C@H]1C=CCC[C@@]2(C[C@@H]3CC[C@@H]4[C@H](C(=O)OCCCCCCCCCCCCCCCC(=O)N(CCCNC(C)=O)C[C@H](CCNC(C)=O)OC(C)=O)[C@]5(CCC[C@@H](C)O5)NC(=[N+]34)N2)O1", "µM", 0.416),
    ("Cn1c2ccccc2c2nnc(NNCc3ccccn3)nc21", "µM", 18.7),
]

// for each compound in input: emit TGI
1. Brc1ccc(C2SCc3nc4ccccc4n32)cc1 (stereo not drawn)
2. COc1ccc(-c2nc3cc(C(F)(F)F)ccc3n2CC2CCCN3CCCCC23)cc1 (stereo not drawn)

1: 28.3; 2: 31.3

* * *

Please respond with reported TGI for every item in the list.
Test system: MDA-N
assayOverview: NCI tumour cell line growth inhibition, 48 h

Below are worked cases with known answers.
# compound, TGI
records = [
    ("O=[N+]([O-])c1ccc(O)c(C=NCC2CCCN3CCCCC23)c1 (stereo not drawn)", "> 100 µM"),
    ("O=P1(Oc2ccccc2)NCc2ncccc2O1 (stereo not drawn)", "> 100 µM"),
    ("NC(=O)SCC(=O)Nc1ccc2ncccc2c1", "> 100 µM"),
    ("NC(N)=NS(=O)(=O)c1ccc(NC(=O)c2ccc3nc4ccccc4c(N)c3c2)cc1", "> 100 µM"),
]

For every listed record, write down its TGI.
1. O=C(CCc1ccc(O)cc1)NCCCNC(=O)CCc1ccc(O)cc1
2. Oc1ccccc1-c1nn2c(CCCCCCCCc3nnc4sc(-c5ccccc5O)nn34)nnc2s1
3. COc1cc2c(cc1O)C(c1cc(O)c(O)c(OC)c1)C(O)(C(=O)O)C(CO)C2O (stereo not drawn)
4. NC(=S)N/N=C1\CCCCC1C(O)(C(F)(F)Cl)C(F)(F)Cl (stereo not drawn)
5. Cc1nc2ccccc2n1Cc1nnc2n1N=C(c1ccccc1)CS2
6. NC(=O)CNC(=O)[C@@H]1C[C@@H](OCCC(=O)O)CN1C(=O)OCc1ccccc1
7. CC(C)(O)CCc1ccc(O)c2c(=O)c3c(O)c4c(cc3oc12)O[C@H]1OC=C[C@@]41O
8. COc1cc(C(=O)OCCn2[nH]c(-c3ccc(Cl)cc3)nc2=S)cc(OC)c1OC

1: > 100 µM; 2: > 100 µM; 3: 30.9 µM; 4: > 10 µM; 5: > 100 µM; 6: > 100 µM; 7: 0.0142 µM; 8: > 100 µM

Value of TGI reported for the compound O=C1C2CC=CCC2C(=O)N1n1c(Cc2ccccc2)n[nH]c1=O (stereo not drawn) is > 100 µM

* * *

Test system: MDA-MB-231 breast
assayOverview: NCI tumour cell line growth inhibition, 48 h
readoutType: TGI

These solved cases illustrate the format of a correct answer.
# compound, TGI
measured = [
    ("CC12CCC(O)CC1=CCC1C2CCC2(C)C(c3cccnc3)=CCC12 (stereo not given)", "> 100 µM"),
    ("CC(C)N(/C(F)=N\\C(=O)Nc1ccccc1C(F)(F)F)C(C)C", "> 100 µM"),
    ("CC(=O)OC1[C@H](n2ccnc2)C[C@H]2[C@@H]3CC=C4CC(N5CCCC5)CC[C@]4(C)[C@H]3CC[C@]12C (stereo not given in full)", "> 100 µM"),
]

For each listed entry, give its TGI.
1. COc1ccc(C(=O)OC2C(OC3C(O)COC(O[C@H]4C[C@H]5[C@@H]6CC=C7C[C@@H](O)CC[C@]7(C)[C@H]6CC[C@]5(C)[C@H]4[C@H](C)C(=O)CCC(C)C)C3OC(C)=O)OCC(O)C2O)cc1 (stereo not given in full)
2. COc1ccc(N(C(=O)NCCO)c2ccccc2)cc1

["4.55 µM", "> 100 µM"]

* * *

Test system: UACC-62 melanoma
assayOverview: NCI tumour cell line growth inhibition, 48 h
readoutType: log10 TGI (log10 of the value in µM)
# values: log10(TGI), units µM

# compound, assayedSystem, log10 TGI
measured = [
    ("FC(F)(F)c1[nH]ncc1-c1nc2ccc3[nH]ncc3c2c2c1CCCC2", "UACC-62 melanoma", 0.45),
    ("CC(=O)NC1=C(Sc2ccc(Cl)cc2)C(=O)c2ccccc2C1=O", "UACC-62 melanoma", 1.12),
    ("CC12CC(Sc3ccccc3N1)c1ccccc1O2 (configuration not stated)", "UACC-62 melanoma", 1.49),
]

Could I get log10 TGI for every one of these entries?
1. C#CC(=O)OCC#CCOC(=O)C#C
2. CN(C)c1ccc(C(=C2C=CC(=[N+](C)C)C=C2)c2ccccc2Cl)cc1

1.75
0.16

* * *

Tested on: PC-3 prostate
assayOverview: NCI tumour cell line growth inhibition, 48 h
readoutType: TGI

# compound, TGI
records = [
    ("CN(C)CCOc1ccc(-c2cc(-c3ccc4c(c3)CC/C4=N\\O)c(-c3ccncc3)o2)cc1", "8.22 µM"),
    ("CC(=O)c1ccc2c(c1)N(CCCN(C)C)c1ccccc1S2", "30.2 µM"),
    ("N=C(N)SCc1ccc(N=C=S)cc1", "30.1 µM"),
    ("CNCCCn1c2c(c3ccc(F)cc3c1=O)C(=O)c1cc(OC)cnc1-2", "8.1 µM"),
    ("Cn1c2ccccc2c2nnc(NNCc3ccccn3)nc21", "16.5 µM"),
]

Would you mind listing TGI for each of the following compounds?
1. Cc1nc2ccccc2c(=O)n1/N=C/c1ccc(N(C)C)cc1
2. O=c1cc(O)c2c(O)cc(O)cc2o1
3. CC(=O)OC1[C@@H](OC(C)=O)CN(OCc2ccccc2)C[C@H]1OC(C)=O (stereo partly specified)
4. CN(C)/C=C/c1c2c(nc3ccccc13)C(=O)c1ccccc1C2=O
5. Cc1nc2ccccc2n1Cc1nnc2n1N=C(c1ccccc1)CS2

["> 100 µM", "> 100 µM", "> 100 µM", "3.77 µM", "53.6 µM"]

Item: C/C(=C1\C(=O)C(c2ccccc2)N(c2ccccc2)C1=O)c1ccc(Cl)cc1 (stereo unspecified) | TGI: 28.2 µM

* * *

Tested on: NCI-H23 lung
assayOverview: NCI tumour cell line growth inhibition, 48 h
readoutType: TGI

Worked set:
# compound, assayedSystem, TGI
records = [
    ("CC(C)(C)N=CN(C=C(c1ccccc1)c1ccccc1)C1CCCCC1", "NCI-H23 lung", "> 100 µM"),
    ("CSc1ccc2c(cc1=O)[C@@H](NC(=O)c1ccc([N+](=O)[O-])cc1)CCc1cc(O)c(O)c(O)c1-2", "NCI-H23 lung", "> 100 µM"),
]

Go through the list and state TGI for each entry.
1. CC(=O)OC1[C@@H](OC(C)=O)CN(OCc2ccccc2)C[C@H]1OC(C)=O (stereo partly specified)
2. CC(=O)NC1=C(Sc2ccc(Cl)cc2)C(=O)c2ccccc2C1=O
3. CC(C)(O)CCc1ccc(O)c2c(=O)c3c(O)c4c(cc3oc12)O[C@H]1OC=C[C@@]41O
4. COc1ccc(-c2nc3c(nc2-c2ccc(OC)cc2)N(C)S(=O)(=O)N=C3N)cc1
5. CCCCN1C(=O)CS/C1=N/Nc1nc2c([nH]1)c(=O)n(C)c(=O)n2C
6. O=[N+]([O-])c1ccc(O)c(C=NCC2CCCN3CCCCC23)c1 (stereo unspecified)

1: > 100 µM; 2: 37 µM; 3: 0.64 µM; 4: > 100 µM; 5: > 100 µM; 6: > 100 µM

Give measured TGI for every item shown.
1. CN1CCN(c2ccc(C(=O)Nc3cccc(C#Cc4cccc5[nH]nc(N)c45)c3)cc2C(F)(F)F)CC1
2. C[N+](C)(C)C(C1=CCCC1=O)c1ccccc1 (stereo unspecified)
3. CC1(C)N=C(N)N=C(N)N1c1ccc(Cl)c(Cl)c1
4. O=C1CCCN1CCCN=c1cc2n(-c3ccc(Cl)cc3)c3ccccc3nc-2cc1Nc1ccc(Cl)cc1
5. COc1ccc(-c2nc3cc(C(F)(F)F)ccc3n2CC2CCCN3CCCCC23)cc1 (stereo unspecified)
6. CC1=C/C(=C2/N=C(N(C)C)SS2)C(C)=N1
7. COc1ccc2c(c1)CCN1C3=C(CCC3)C(=O)C[C@@H]21
8. Cc1cc(C)c2c(=O)cc(-c3ccc4ccccc4c3)[nH]c2n1

1. 6.12 µM
2. > 100 µM
3. > 100 µM
4. 25.1 µM
5. 29 µM
6. > 100 µM
7. > 100 µM
8. > 100 µM

Hello, I would appreciate it if you could give TGI for each entry below.
1. O=S(=O)(NCCO)c1cc[c]([Sb](=[O])([OH])[OH])cc1
2. COc1ccc(-c2nnc(Nc3nc(O)c(C4=c5cc(F)ccc5=NC4=O)s3)o2)cc1
3. O=C1C=C2CC[C@H]3[C@@H]4CC[C@H](Oc5c6ccccc6nc6ccccc56)[C@H]4CC[C@@H]3[C@H]2CC1
4. O=C1C2CC=CCC2C(=O)N1n1c(Cc2ccccc2)n[nH]c1=O (stereo unspecified)
5. NC(=O)CNC(=O)[C@@H]1C[C@@H](OCCC(=O)O)CN1C(=O)OCc1ccccc1
6. O=C1CCCC2=C1CC1=C(CCCC1=O)N2c1cccc([N+](=O)[O-])c1
7. Clc1ccc(N2CCC(N3CCCC3)CC2)cc1-c1nc2ccccc2[nH]1

1. > 100 µM
2. > 100 µM
3. > 100 µM
4. > 100 µM
5. > 100 µM
6. > 100 µM
7. > 71.3 µM

Parameters: items (list). Returns: TGI for each item.
1. COc1ccc(C(=O)OC2C(OC3C(O)COC(O[C@H]4C[C@H]5[C@@H]6CC=C7C[C@@H](O)CC[C@]7(C)[C@H]6CC[C@]5(C)[C@H]4[C@H](C)C(=O)CCC(C)C)C3OC(C)=O)OCC(O)C2O)cc1 (stereo partly specified)
2. O=S(=O)(O)c1ccccc1N=Nc1ccc(N=Nc2c(O)ccc3ccccc23)c(S(=O)(=O)O)c1
3. CC(=O)c1cccc(NC(=O)c2ccc(NC3=C(Cl)C(=O)N(Cc4ccccc4)C3=O)cc2)c1

["3.37 µM", "> 100 µM", "43.7 µM"]
